assay-method-text: soluble on expression in E. coli; label from the status in PepcDB or PDB records

{"chain-sequence": "AHHHHHHGSVDMSKVKLRIENIVASVDLFAQLDLEKVLDLCPNSKYNPEEFPGIICHLDDPKVALLIFSSGKLVVTGAKSVQDIERAVAKLAQKLKSIGVKFKRAPQIDVQNMVFSGDIGREFNLDVVALTLPNCEYEPEQFPGVIYRVKEPKSVILLFSSGKIVCSGAKSEADAWEAVRKLLRELDKYGLLEEEEEEL", "soluble on expression in E. coli": "soluble"}
{"chain-sequence": "GPGSMNAASYSGSGLASAATVEDVVKPDTIAAILAQLKEQDVRIGRLEAAVERSAINRTHFDILTMAGVTADFVCDEISFHNRSTVEFNALPCKVTLDYPCGELSILLDDADSDLSFLGVTLRVDCITDCHLLVDPDNCSVVVDTNTSKITDVTQLVLVGPTQEATRELYEALRDVVAQRRPPCSPAPDTTTTTTRNSSRALINRSEGEYESTLGGDGKLFSIEATPNNAGTTRNNVDASSSPRLQLSNTLPCDRTAHTPVDPRRPNTLPSFSANRKGTQQE", "soluble on expression in E. coli": "soluble"}
